biological target: Adrenergic α1B (Rattus norvegicus)
Sequence (P15823 whole entry): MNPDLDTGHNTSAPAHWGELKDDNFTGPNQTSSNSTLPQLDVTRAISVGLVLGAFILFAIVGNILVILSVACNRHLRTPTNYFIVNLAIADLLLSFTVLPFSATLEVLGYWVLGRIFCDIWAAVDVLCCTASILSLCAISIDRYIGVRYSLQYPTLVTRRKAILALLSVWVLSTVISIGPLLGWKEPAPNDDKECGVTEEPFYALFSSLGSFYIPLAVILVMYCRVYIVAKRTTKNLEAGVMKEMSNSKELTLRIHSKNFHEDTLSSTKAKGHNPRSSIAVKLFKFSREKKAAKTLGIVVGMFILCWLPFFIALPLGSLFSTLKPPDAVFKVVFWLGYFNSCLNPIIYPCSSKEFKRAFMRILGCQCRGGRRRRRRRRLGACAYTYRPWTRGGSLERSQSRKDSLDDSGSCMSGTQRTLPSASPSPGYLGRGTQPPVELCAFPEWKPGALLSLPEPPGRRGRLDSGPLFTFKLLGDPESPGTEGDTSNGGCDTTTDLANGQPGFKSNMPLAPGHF
observedProperty: IC50 (µM)
Numbers only, in µM.

Data request: Enter reported IC50 observed with Adrenergic α1B (Rattus norvegicus) for CN[C@H]1CC[C@@H](c2ccc(Cl)c(Cl)c2)c2ccc(C#CCCCO)cc21 [compound Ia, hydroiodide]
Data returned: 0.562

###

Target: Adrenergic α1A (Rattus norvegicus, UniProt P43140)
Sequence (P43140 1-466): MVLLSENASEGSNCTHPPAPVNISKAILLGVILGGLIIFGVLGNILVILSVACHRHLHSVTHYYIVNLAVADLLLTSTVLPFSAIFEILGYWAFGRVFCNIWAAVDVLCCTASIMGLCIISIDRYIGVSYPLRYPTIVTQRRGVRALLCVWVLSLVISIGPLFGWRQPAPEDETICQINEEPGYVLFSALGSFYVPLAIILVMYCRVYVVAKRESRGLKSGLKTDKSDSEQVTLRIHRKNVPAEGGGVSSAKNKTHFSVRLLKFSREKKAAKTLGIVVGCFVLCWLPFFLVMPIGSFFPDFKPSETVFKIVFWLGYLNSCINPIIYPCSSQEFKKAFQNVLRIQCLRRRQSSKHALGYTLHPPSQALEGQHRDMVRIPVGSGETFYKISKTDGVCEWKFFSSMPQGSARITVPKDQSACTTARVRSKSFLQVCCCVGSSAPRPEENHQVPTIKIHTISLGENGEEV
Experiment: Radioligand binding assay, Adrenergic α1A
observedProperty: IC50 (µM)
Answers are plain numbers, in µM.

Data request: Which IC50 value belongs to CN[C@H]1CC[C@@H](c2ccc(Cl)c(Cl)c2)c2ccc(C#CCCCO)cc21 [compound Ia, hydroiodide] ?
Data returned: 4.2

###

Sequence of the target: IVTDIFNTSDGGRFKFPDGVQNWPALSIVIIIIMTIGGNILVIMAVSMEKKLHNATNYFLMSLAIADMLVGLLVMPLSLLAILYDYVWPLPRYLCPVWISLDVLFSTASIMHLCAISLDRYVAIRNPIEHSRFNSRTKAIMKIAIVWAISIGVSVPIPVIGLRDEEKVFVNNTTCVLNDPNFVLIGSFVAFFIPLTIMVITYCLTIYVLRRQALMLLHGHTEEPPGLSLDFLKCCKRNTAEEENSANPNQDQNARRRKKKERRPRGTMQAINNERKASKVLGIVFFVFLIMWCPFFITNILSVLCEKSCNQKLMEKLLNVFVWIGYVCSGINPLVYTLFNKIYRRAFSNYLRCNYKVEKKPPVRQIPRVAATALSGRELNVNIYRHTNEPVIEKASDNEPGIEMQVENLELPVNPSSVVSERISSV
observedProperty: IC50 (µM)
Numbers only, in µM.

Data request: Given CN[C@H]1CC[C@@H](c2ccc(Cl)c(Cl)c2)c2ccc(C#CCCCO)cc21 [compound Ia, hydroiodide] , state its recorded IC50.
Data returned: 9.16

###

Target: Serotonin (5-Hydroxytryptamine) 5-HT6 (Homo sapiens, UniProt P50406)
Sequence (P50406 whole entry): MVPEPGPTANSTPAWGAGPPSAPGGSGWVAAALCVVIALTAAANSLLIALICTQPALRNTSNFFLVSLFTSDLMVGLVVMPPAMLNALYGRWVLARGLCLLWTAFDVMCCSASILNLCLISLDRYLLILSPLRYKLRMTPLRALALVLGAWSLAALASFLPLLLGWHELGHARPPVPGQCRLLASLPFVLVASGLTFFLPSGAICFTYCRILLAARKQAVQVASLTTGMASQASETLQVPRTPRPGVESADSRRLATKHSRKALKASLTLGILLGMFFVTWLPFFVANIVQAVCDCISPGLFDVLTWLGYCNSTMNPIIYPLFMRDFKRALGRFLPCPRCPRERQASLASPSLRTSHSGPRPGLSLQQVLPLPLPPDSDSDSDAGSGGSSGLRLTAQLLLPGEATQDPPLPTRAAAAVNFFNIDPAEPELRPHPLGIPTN
Assay: Radioligand binding assay, 5-HT6
Details: read-out: K1
Text: . Table 1 provides data produced via a receptor binding assay and IC50 and Ki determination. […] In addition, the compound of formula (Ia) has a potent DAT inhibition, which is indicative of dopaminergic uptake inhibition and increased DA activity. […]
observedProperty: Ki
Express your answer as a number followed by its unit.

Data request: Please look up its Ki: CN[C@H]1CC[C@@H](c2ccc(Cl)c(Cl)c2)c2ccc(C#CCCCO)cc21 [compound Ia, hydroiodide]
Data returned: 1210 nM
